These entries and their values trace back to paper PMC6710338.

tested on: S. aureus ATCC 25923; assay: MIC, broth microdilution (CLSI), ATCC reference strain; assay type: cell-based, Staphylococcus aureus; details: ATCC 25923
Square brackets hold non-standard residues; d marks the D form. Peptide text beside a SMILES is read from it. βAla = NCCC(=O)O
Provide the reported MIC of each item.
Give your result in µM as a bare value.

Query: Please indicate MIC recorded for CC(C)C[C@H](NC(=O)[C@H](CC(C)C)NC(=O)[C@H](CCCCN)NC(=O)[C@H](CC(C)C)NC(=O)[C@H](CC(C)C)NC(=O)[C@H](Cc1c[nH]c2ccccc12)NC(=O)[C@H](CCCCN)NC(=O)[C@H](CC(C)C)NC(=O)[C@H](CC(C)C)NC(=O)[C@H](CCCCN)NC(=O)[C@H](CCCCN)NC(=O)[C@H](CO)NC(=O)[C@H](CCCCN)NC(=O)[C@@H](NC(=O)[C@@H](NC(=O)[C@@H](N)CCCCN)[C@@H](C)O)[C@@H](C)O)C(N)=O [PP4-3.1] (H-KTTKSKKLLKWLLKLL-NH2)
Reply: 4

Query: Quick one: give measured MIC for CC(C)C[C@H](NC(=O)[C@H](CC(C)C)NC(=O)[C@H](CCCCN)NC(=O)[C@H](CC(C)C)NC(=O)[C@H](CC(C)C)NC(=O)[C@H](Cc1c[nH]c2ccccc12)NC(=O)[C@H](CCCCN)NC(=O)[C@H](CC(C)C)NC(=O)[C@H](CC(C)C)NC(=O)[C@H](CCCCN)NC(=O)[C@H](CCCCN)NC(=O)CCNC(=O)[C@H](CO)NC(=O)[C@H](CCCCN)NC(=O)[C@@H](NC(=O)[C@@H](NC(=O)[C@@H](N)CCCCN)[C@@H](C)O)[C@@H](C)O)C(N)=O [PP4-β-ala-3.1] (H-KTTKS[βAla]KKLLKWLLKLL-NH2)
Reply: 4

Query: State its MIC: CC(C)C[C@H](NC(=O)[C@H](Cc1c[nH]c2ccccc12)NC(=O)[C@H](CCCCN)NC(=O)[C@H](CC(C)C)NC(=O)[C@H](CC(C)C)NC(=O)[C@H](CCCCN)NC(=O)[C@@H](N)CCCCN)C(=O)N[C@@H](CC(C)C)C(=O)N[C@@H](CCCCN)C(=O)N[C@@H](CC(C)C)C(=O)N[C@@H](CC(C)C)C(=O)N[C@@H](CCCCN)C(=O)N[C@H](C(=O)N[C@H](C(=O)N[C@@H](CCCCN)C(=O)N[C@@H](CO)C(N)=O)[C@@H](C)O)[C@@H](C)O [Peptide 3.1-PP4] (H-KKLLKWLLKLLKTTKS-NH2; N-terminus assumed)
Reply: 16
